target: VHX (Homo sapiens (Human))
Sequence (Q9NRW4 whole entry): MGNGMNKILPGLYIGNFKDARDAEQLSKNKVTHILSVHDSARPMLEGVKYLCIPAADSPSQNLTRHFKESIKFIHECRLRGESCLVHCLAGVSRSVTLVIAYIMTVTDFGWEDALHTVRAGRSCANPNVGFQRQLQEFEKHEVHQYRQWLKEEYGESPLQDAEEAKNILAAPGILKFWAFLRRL
pKi: −log10 of the molar value.
measuredAttribute: pKi

Report value only: pKi, VHX (Homo sapiens (Human)), CCc1ccc(C(=O)NCCCCC(NC(=O)C(Cc2ccc(C(F)(F)P(=O)(O)O)cc2)NC(=O)C(Cc2ccccc2)NC(=O)COC2CC(C)CCC2C(C)C)C(N)=O)cc1 (stereo not shown) [Compound 10]
< 6.00

====

biological target: CD45 (Homo sapiens (Human), UniProt P08575)
Sequence (P08575 26-1306, species assumed): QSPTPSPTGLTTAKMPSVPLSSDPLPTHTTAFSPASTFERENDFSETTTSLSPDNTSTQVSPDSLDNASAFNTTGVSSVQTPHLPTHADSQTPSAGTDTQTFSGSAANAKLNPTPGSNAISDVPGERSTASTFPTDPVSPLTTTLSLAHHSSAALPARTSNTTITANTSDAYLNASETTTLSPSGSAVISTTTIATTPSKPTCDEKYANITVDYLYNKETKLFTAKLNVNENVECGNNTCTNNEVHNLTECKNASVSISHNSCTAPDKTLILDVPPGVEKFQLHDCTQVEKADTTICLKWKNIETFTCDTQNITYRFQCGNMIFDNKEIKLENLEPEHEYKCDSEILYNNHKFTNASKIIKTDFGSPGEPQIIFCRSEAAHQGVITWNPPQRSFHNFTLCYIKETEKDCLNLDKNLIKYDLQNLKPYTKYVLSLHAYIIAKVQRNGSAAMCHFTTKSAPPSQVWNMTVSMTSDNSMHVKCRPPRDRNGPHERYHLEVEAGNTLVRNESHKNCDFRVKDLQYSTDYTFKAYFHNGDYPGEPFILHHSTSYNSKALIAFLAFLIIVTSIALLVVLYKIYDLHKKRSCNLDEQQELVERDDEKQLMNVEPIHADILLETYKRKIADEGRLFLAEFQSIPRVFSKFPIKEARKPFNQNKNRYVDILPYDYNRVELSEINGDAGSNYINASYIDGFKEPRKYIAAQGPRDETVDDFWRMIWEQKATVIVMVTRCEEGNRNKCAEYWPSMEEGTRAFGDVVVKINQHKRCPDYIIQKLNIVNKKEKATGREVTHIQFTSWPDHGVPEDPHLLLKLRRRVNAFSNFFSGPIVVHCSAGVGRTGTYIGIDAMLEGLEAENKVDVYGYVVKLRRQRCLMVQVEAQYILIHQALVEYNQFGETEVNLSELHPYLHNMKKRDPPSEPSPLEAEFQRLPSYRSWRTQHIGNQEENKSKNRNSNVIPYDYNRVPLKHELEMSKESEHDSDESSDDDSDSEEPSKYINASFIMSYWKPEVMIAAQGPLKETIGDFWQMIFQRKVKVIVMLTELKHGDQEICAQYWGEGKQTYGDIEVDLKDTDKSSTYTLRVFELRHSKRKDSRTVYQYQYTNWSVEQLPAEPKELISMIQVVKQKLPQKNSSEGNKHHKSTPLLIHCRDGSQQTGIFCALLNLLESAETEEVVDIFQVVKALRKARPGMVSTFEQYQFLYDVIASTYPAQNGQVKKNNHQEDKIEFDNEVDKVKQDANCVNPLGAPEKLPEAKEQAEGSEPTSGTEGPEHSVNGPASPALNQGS
measuredAttribute: Ki

Report value only: Ki, CD45 (Homo sapiens (Human), UniProt P08575), CCc1ccc(C(=O)NCCCCC(NC(=O)C(Cc2ccc(C(F)(F)P(=O)(O)O)cc2)NC(=O)C(Cc2ccccc2)NC(=O)COC2CC(C)CCC2C(C)C)C(N)=O)cc1 (stereo not shown)
> 1 µM

====

target: PTP1B (Homo sapiens (Human), UniProt P18031); assay: PTP activity assay with pNPP substrate, PTP1B; type: biochemical; settings: Table 3, Example 13; read-out: Ki (PTP1B)
Sequence (P18031 whole entry, species assumed): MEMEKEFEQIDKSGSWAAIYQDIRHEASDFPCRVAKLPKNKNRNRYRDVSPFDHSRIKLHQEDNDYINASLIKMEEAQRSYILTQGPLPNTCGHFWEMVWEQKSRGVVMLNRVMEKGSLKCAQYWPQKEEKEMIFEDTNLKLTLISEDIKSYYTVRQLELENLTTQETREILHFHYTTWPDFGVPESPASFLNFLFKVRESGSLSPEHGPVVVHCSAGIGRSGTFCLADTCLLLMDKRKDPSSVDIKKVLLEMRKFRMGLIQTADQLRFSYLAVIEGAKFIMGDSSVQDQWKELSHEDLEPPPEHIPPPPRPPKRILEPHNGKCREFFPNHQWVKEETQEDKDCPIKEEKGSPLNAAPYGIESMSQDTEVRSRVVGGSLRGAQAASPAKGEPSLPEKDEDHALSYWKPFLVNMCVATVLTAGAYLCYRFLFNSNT
measuredAttribute: pKi
# pKi is unitless: minus log10 of the molar concentration; print number only

State its pKi: CCc1ccc(C(=O)NCCCCC(NC(=O)C(Cc2ccc(C(F)(F)P(=O)(O)O)cc2)NC(=O)C(Cc2ccccc2)NC(=O)COC2CC(C)CCC2C(C)C)C(N)=O)cc1 (stereo not shown)
7.47

====

molecular target: PTP1B (Homo sapiens (Human)); assay: PTP activity assay with pNPP substrate, PTP1B; assay type: biochemical; conditions: tight binding inhibition equation; Table 1; read-out: Ki for PTP1B
measuredAttribute: pKi
# pKi is unitless: minus log10 of the molar concentration; print number only

State its pKi: CCc1ccc(C(=O)NCCCCC(NC(=O)C(Cc2ccc(C(F)(F)P(=O)(O)O)cc2)NC(=O)C(Cc2ccccc2)NC(=O)COC2CC(C)CCC2C(C)C)C(N)=O)cc1 (stereo not shown) [Compound 10]
7.64

====

Item-by-item account of pIC50
Target: TC-PTP (Homo sapiens (Human))
Sequence (P17706 whole entry): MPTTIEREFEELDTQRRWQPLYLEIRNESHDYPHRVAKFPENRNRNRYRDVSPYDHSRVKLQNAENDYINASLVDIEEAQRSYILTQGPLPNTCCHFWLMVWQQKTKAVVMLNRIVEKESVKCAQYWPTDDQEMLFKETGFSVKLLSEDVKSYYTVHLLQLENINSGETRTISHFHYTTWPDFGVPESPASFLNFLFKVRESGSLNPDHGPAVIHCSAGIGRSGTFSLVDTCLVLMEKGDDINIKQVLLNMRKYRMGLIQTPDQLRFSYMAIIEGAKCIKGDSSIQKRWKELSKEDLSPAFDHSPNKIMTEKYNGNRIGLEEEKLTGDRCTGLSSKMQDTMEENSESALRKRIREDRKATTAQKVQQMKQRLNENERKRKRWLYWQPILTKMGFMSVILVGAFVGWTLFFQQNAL
Assay: PTP activity assay with pNPP substrate, TC-PTP
Assay type: biochemical
Settings: 2 mM pNPP, DMG buffer, 25° C.; Table 1; read-out: IC50 for TC-PTP
Protocol: The PTP activity was assayed using p-nitrophenyl phosphate (pNPP) as a substrate in DMG buffer at 25° C. […] The reaction rate was measure using a SPECTRAMAX microplate spectrophotometer (Molecular Devices). […] The reaction rate was measured using a Spectra Max Plus 384 Microplate Spectrophotometer (Molecular Devices). […] The absorbance at 405 nm was read on the SpectraMax Plus 384 Microplate Spectrophotometer. […] The reaction was then incubated at room temperature for 30 min and quenched and read. […]
Where a SMILES comes first, the peptide text is derived from it. [ ]: non-standard residue; d: D form. F2Pmp = N[CH](Cc1ccc(C(F)(F)P(=O)(O)O)cc1)C(=O)O
# pIC50 is unitless: minus log10 of the molar concentration; print number only

// below: answered compounds
Report value only: pIC50, TC-PTP (Homo sapiens (Human)), CCc1ccc(C(=O)NCCCCC(NC(=O)C(Cc2ccc(C(F)(F)P(=O)(O)O)cc2)NC(C)=O)C(N)=O)cc1 (stereo not drawn) [Compound 6]
6.80

Report value only: pIC50, TC-PTP (Homo sapiens (Human)), CCc1ccc(C(=O)NCCCCC(NC(=O)C(Cc2ccc(C(F)(F)P(=O)(O)O)cc2)NC(=O)C(Cc2ccccc2)NC(C)=O)C(N)=O)cc1 (stereo not drawn) [Compound 8]
7.59

Could you now look at the following compound, please?
Report value only: pIC50, TC-PTP (Homo sapiens (Human)), CC(=O)NCCCCC(NC(=O)C(Cc1ccc(C(F)(F)P(=O)(O)O)cc1)NC(C)=O)C(N)=O (stereo not drawn) [Compound 4] (Ac-[F2Pmp]-Lys(Ac)-NH2; configuration not given here)
5.70

====

biological target: TC-PTP (Homo sapiens (Human)); test: PTP activity assay with pNPP substrate, TC-PTP; type: biochemical; settings: IC50 without TC-PTP preincubation, no preincubation; 0.04 nM TC-PTP
measuredAttribute: pIC50
# pIC50 is unitless: minus log10 of the molar concentration; print number only

State its pIC50: CCc1ccc(C(=O)NCCCCC(NC(=O)C(Cc2ccc(C(F)(F)P(=O)(O)O)cc2)NC(=O)C(Cc2ccccc2)NC(=O)COC2CC(C)CCC2C(C)C)C(N)=O)cc1 (stereo not shown) [Compound 10]
8.04

====

target: TC-PTP (Homo sapiens (Human)); test: PTP activity assay with pNPP substrate, TC-PTP; assay type: biochemical; conditions: Table 3, Example 13; read-out: Ki (TC-PTP)
measuredAttribute: pKi
# pKi is unitless: minus log10 of the molar concentration; print number only

Report value only: pKi, TC-PTP (Homo sapiens (Human)), CCc1ccc(C(=O)NCCCCC(NC(=O)C(Cc2ccc(C(F)(F)P(=O)(O)O)cc2)NC(=O)C(Cc2ccccc2)NC(=O)COC2CC(C)CCC2C(C)C)C(N)=O)cc1 (stereo not shown) [Compound 10]
8.37

====

biological target: TC-PTP (Homo sapiens (Human)); experiment: PTP activity assay with pNPP substrate, TC-PTP; type: biochemical; conditions: known competitive ligand; read-out: IC50 for TC-PTP
measuredAttribute: IC50 (µM)
Give the quantity in µM, number only.

State its IC50: O=C(N[C@@H](Cc1ccc(C(F)(F)P(=O)(O)O)cc1)C(=O)O)OCC1c2ccccc2-c2ccccc21 [Fmoc-F2Pmp-OH, reference compound]
20

====

target: Cdc14A (Homo sapiens (Human), UniProt Q9UNH5)
Sequence (Q9UNH5 whole entry, species assumed): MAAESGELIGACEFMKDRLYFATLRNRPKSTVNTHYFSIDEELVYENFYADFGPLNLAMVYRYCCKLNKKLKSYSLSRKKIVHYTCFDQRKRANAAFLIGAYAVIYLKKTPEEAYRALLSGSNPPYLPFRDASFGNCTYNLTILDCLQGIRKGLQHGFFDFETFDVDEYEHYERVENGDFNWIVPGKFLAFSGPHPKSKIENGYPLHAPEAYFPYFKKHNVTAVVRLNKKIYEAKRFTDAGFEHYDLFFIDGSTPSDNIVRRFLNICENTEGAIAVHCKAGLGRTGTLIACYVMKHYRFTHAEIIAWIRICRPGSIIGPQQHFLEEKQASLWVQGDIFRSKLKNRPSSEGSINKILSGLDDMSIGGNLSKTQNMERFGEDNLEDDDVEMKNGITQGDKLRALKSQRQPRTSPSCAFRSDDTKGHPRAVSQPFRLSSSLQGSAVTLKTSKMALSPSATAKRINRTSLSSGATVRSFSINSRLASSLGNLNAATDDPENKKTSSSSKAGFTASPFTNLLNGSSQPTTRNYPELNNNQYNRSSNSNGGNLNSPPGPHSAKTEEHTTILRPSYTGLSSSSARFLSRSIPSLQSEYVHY
pKi: −log10 of the molar value.
measuredAttribute: pKi

Report value only: pKi, Cdc14A (Homo sapiens (Human), UniProt Q9UNH5), CCc1ccc(C(=O)NCCCCC(NC(=O)C(Cc2ccc(C(F)(F)P(=O)(O)O)cc2)NC(=O)C(Cc2ccccc2)NC(=O)COC2CC(C)CCC2C(C)C)C(N)=O)cc1 (stereo not shown) [Compound 10]
< 6.00

====

molecular target: SHP2 (Homo sapiens (Human))
Sequence (Q06124 whole entry, species assumed): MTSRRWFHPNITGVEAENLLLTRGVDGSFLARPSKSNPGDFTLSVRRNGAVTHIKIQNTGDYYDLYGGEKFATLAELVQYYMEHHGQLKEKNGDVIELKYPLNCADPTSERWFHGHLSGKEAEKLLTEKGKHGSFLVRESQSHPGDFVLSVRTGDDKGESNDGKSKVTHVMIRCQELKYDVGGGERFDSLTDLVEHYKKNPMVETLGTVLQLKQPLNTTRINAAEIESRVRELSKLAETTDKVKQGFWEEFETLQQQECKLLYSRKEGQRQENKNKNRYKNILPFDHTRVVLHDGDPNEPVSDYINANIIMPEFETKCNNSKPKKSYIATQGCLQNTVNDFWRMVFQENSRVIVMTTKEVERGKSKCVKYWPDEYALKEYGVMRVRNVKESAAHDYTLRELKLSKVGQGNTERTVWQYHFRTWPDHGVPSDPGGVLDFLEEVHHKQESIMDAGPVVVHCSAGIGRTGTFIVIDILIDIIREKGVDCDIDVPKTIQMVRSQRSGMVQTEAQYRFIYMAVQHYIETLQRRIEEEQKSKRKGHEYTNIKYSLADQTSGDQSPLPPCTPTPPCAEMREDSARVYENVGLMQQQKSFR
measuredAttribute: Ki

Report value only: Ki, SHP2 (Homo sapiens (Human)), CCc1ccc(C(=O)NCCCCC(NC(=O)C(Cc2ccc(C(F)(F)P(=O)(O)O)cc2)NC(=O)C(Cc2ccccc2)NC(=O)COC2CC(C)CCC2C(C)C)C(N)=O)cc1 (stereo not shown)
> 1000 nM

====

Target: UniProt P17706
Experiment: PTP activity assay with pNPP substrate, TC-PTP
Assay type: biochemical
Conditions: IC50 with TC-PTP preincubation, enzyme preincubated with inhibitor 30 min; 0.04 nM TC-PTP
Method: The PTP activity was assayed using p-nitrophenyl phosphate (pNPP) as a substrate in DMG buffer at 25° C. […] The reaction rate was measure using a SPECTRAMAX microplate spectrophotometer (Molecular Devices). […] The reaction rate was measured using a Spectra Max Plus 384 Microplate Spectrophotometer (Molecular Devices). […] The absorbance at 405 nm was read on the SpectraMax Plus 384 Microplate Spectrophotometer. […] The reaction was then incubated at room temperature for 30 min and quenched and read. […]
measuredAttribute: IC50 (nM)
Give the quantity in nM, number only.

State its IC50: CCc1ccc(C(=O)NCCCCC(NC(=O)C(Cc2ccc(C(F)(F)P(=O)(O)O)cc2)NC(=O)C(Cc2ccccc2)NC(=O)COC2CC(C)CCC2C(C)C)C(N)=O)cc1 (stereo not shown)
8.7

====

molecular target: LMWPTP (Homo sapiens (Human), UniProt P24666)
Sequence (P24666 whole entry, species assumed): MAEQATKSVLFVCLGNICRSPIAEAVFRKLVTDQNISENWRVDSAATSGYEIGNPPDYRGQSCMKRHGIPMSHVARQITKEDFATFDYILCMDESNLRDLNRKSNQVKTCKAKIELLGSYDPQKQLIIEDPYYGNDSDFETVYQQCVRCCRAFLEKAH
measuredAttribute: Ki

State its Ki: CCc1ccc(C(=O)NCCCCC(NC(=O)C(Cc2ccc(C(F)(F)P(=O)(O)O)cc2)NC(=O)C(Cc2ccccc2)NC(=O)COC2CC(C)CCC2C(C)C)C(N)=O)cc1 (stereo not shown)
> 1 µM

====

molecular target: PTP-Meg2 (Homo sapiens (Human), UniProt P43378)
Sequence (P43378 whole entry): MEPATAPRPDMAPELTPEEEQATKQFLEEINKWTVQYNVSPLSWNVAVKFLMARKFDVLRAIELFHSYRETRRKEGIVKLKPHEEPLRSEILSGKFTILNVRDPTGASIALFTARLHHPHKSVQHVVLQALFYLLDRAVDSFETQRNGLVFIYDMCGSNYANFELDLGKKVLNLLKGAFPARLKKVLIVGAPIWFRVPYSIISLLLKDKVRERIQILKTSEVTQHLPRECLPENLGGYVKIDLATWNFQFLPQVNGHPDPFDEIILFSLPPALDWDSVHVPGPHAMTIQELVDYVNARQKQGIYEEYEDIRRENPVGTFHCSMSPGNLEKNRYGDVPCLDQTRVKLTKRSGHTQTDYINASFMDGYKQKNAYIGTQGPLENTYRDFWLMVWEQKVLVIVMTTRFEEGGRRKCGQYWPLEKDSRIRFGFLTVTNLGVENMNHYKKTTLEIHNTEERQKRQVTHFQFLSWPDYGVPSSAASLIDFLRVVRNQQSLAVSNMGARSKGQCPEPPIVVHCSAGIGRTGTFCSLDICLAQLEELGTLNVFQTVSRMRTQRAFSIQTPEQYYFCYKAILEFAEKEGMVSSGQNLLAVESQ
pKi: −log10 of the molar value.
measuredAttribute: pKi

State its pKi: CCc1ccc(C(=O)NCCCCC(NC(=O)C(Cc2ccc(C(F)(F)P(=O)(O)O)cc2)NC(=O)C(Cc2ccccc2)NC(=O)COC2CC(C)CCC2C(C)C)C(N)=O)cc1 (stereo not shown)
< 6.00

====

molecular target: PTP1B (Homo sapiens (Human), UniProt P18031); test: PTP activity assay with pNPP substrate, PTP1B; assay type: biochemical; conditions: 2 mM pNPP, DMG buffer, 25° C.; Table 1
Where a SMILES comes first, the peptide text is derived from it. [ ]: non-standard residue; d: D form. F2Pmp = N[CH](Cc1ccc(C(F)(F)P(=O)(O)O)cc1)C(=O)O
Item-by-item account of IC50
Give the quantity in nM, number only.

// below: answered compounds
State its IC50: CCc1ccc(C(=O)NCCCCC(NC(=O)C(Cc2ccc(C(F)(F)P(=O)(O)O)cc2)NC(=O)C(Cc2ccccc2)NC(C)=O)C(N)=O)cc1 (stereo not drawn)
87

State its IC50: CCc1ccc(C(=O)NCCCCC(NC(=O)C(Cc2ccc(C(F)(F)P(=O)(O)O)cc2)NC(C)=O)C(N)=O)cc1 (stereo not drawn)
700

Could you now look at the following compound, please?
State its IC50: CC(=O)NCCCCC(NC(=O)C(Cc1ccc(C(F)(F)P(=O)(O)O)cc1)NC(C)=O)C(N)=O (stereo not drawn) [Compound 4] (Ac-[F2Pmp]-Lys(Ac)-NH2; configuration not given here)
2000
